Listing of entries alongside the reported pull-down binding Z-score.
tested on: TO-3-N3 (biotin conjugate); experiment: pull-down binding Z-score (relative to library population); higher = stronger binding; details: RNA library: Library-2
Just the number, please, no unit after it.

Field pull-down binding Z-score (entry AGGGCCUUCUGAGCCCAGGUCCG [hsa-mir-6716] ) reads 0.611

Field pull-down binding Z-score (entry ACCUGUGUGUGCCCAAGUGUUUCUAGCAAACACAGGG [hsa-mir-3649] ) reads 0.76

Field pull-down binding Z-score (entry CAGGCCACAAAUAGGCGUG ) reads -0.638

====

system: TO-N3-2 (biotin conjugate); experiment: pull-down binding Z-score (relative to library population); higher = stronger binding; settings: RNA library: Library-2
recorded.endpoint: pull-down binding Z-score
Just the number, please, no unit after it.

Here's what some known entries look like.
{"columns": ["primary.sequence", "pull-down binding Z-score"],
 "data": [
  ["GGACUCAGCCCUGUGCUGAGCCC [hsa-mir-5587]", -0.961],
  ["GUUCUUGUAUGUGAGAAC [IAV_invivo_PA_3_Motif_23+IAV_invivo_PA_3_Motif_23]", -1.09]
]}

Field pull-down binding Z-score (entry GCACGUAGUGUAGCUAGUCAAUCCAUCAUUGCCUACACUAUGUC ) reads 0.486

Field pull-down binding Z-score (entry UGCACCACUCUCCCUGUGAUGAGGUGAA [hsa-mir-4786] ) reads 0.456

Field pull-down binding Z-score (entry UCAUAAAGAUGAUC [hsa-mir-8067] ) reads 0.0453

Field pull-down binding Z-score (entry GCUAUCUAACCUUAACUUGCCUGGUUGUGAUGGU [SHAPE_invivo_SARS-CoV-2_Motif_361] ) reads 0.466

Field pull-down binding Z-score (entry GGAUGGUUACAGGACUAAGGAACAAUCCGUCC [IAV_invivo_HA_4_Motif_14+IAV_invivo_HA_4_Motif_14] ) reads -0.0521

Field pull-down binding Z-score (entry AUUGGCUUGGAUUCUGCAAAGCCU [hsa-mir-7151] ) reads 1.03

Field pull-down binding Z-score (entry CAAGUAAAAGGAAUUUUCAUUUUCCAGCCCCUAAUUG [hsa-mir-6739] ) reads -0.628

Field pull-down binding Z-score (entry GGGGCCUGUGGUCCC [hsa-mir-1268a] ) reads -0.675

Field pull-down binding Z-score (entry CUGUGACGUGCUCCAUCACCGGGCAG [hsa-mir-3714] ) reads 0.847
